# target of assay: T1, ECF28_1040
# T1 chain: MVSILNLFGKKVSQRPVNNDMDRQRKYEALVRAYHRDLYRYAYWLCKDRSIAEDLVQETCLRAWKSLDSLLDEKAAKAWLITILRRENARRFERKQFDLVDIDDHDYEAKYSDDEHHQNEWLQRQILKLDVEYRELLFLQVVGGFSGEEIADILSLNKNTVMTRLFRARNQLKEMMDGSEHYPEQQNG
endpoint name: fold repression

{"binder": "AS01_3473 (protein) MSNYDNAELLALWLEGKLTPKQRDEFEQRCIQDSQFAEQVDAAAMVKIGADDYSSSEVPQWNKAATFEPQQANNSGSWLSGVSLVTSALAIVLVLTGTQVTTSEGELRIRFGSGQSEQALVKLVDSKLDAFKQNQQDAFTLYAQTLQQQQSESASQLTNYLLSSSRKERREDFAELIKFVNQQRSDDQLFYARQLNQLQQDVYHDATGVALESIQQ", "reported value": 2.3}
{"binder": "AS15_436 (protein) MAQSTEPKASPQEATAKGGDNTKGKSRKELQQQIDENLRRVYEEALVQEVPDRFAMLLDQLRQKGTGK", "reported value": 4.28}
{"binder": "AS33_423 (protein) MMAMSNTMPDPREPGDVEALLPWYAAGTLNARDARRVADALDRDPALARQYAVILEEYASTIELNESLGAPSSRAMQKLFAAIDAEPARAPGAGQGLGARFAGFFAGLSPKALAWSASVAGLALLLQAGLIGALLTWPHAAPVQTAAYQPQREVARAPASSPAPATVSPPAAAMADRAADAGKSTPPMVMAERSGGPVVRSLAPQSGPRVLVKFAPEARASEIAALLDQYNAVVVDSSRGGLFRLQFGTQSLSKQDQETLIGRLQKEPVVSVVLSAP", "reported value": 2.67}
